Test system: House Fly
Assay Explanation: Adult House Fly Assay (AhsF)
Parameters: species or system Musca domestica
Condition Parameters: Musca domestica, 24 h, read-out: Potency (24 h EC50 μM)
Observable: EC50 (µM)
Write the answer as a number in µM, unit excluded.

Quick one: give measured EC50 for N#Cc1nn(-c2c(Cl)cc(C(F)(F)F)cc2Cl)c(N)c1[S+]([O-])C(F)(F)F (stereo not shown) 0.97

Entry source: patent US20150045313A1
